- Tested on: PPARg:RXRa 90nM:30nM, anti-RXR (NR concentration 90 nM, RXRa partner concentration 30 nM)
- protocol-summary: PBM binding z-score (relative to random genomic background probes); higher = stronger binding; sequences stand for … in GC…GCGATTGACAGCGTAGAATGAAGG
Measured PBM binding z-score values are reported for all entries that follow.
recorded-endpoint: PBM binding z-score

INSERT INTO results (query_sequence, recorded_number) VALUES
  ('CGTCCAAGGTCTAAGGTCAGTGAAGAGATGACGG', 3.52),
  ('ATACCAAGGTGATCGTGAGGTCGTTGACACTAAC', 0.0166),
  ('CGAGCTAGGTCAGAACAGGACAGTGAAGGATGAT', 0.0129),
  ('CTACCAAGGTGAACAAGGTTGTTGATTACTATTC', 0.615),
  ('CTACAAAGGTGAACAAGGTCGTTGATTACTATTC', 2.84),
  ('GCTAGCAGGCCATTGGGGTCACTCAATGACGGGC', 2.17),
  ('CCTACTGGGCCAAGGTAATTGATCAGTCAAAGCA', 0.531),
  ('TCTAGCCGGCCAGAGGGTCACTCAAGAGGTACGG', 1.44),
  ('TCTGGTAGGTCAACGATGGTCAGCTAATCTGCTA', 4.32),
  ('AGTCAAAGTTCATCTAGGTAACGGAAGATATGCT', 5.62),
  ('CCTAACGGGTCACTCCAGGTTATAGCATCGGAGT', 1.43),
  ('CCTACTGGGGCAGAAAGGTTACCATACCATCCGG', 2.22);

* * *

- System: RXRa DBDmut IVT, anti-RXR (DBD mutation: RXRa K156A/R161A, NR concentration 90 nM)
- protocol-summary: PBM binding z-score (relative to random genomic background probes); higher = stronger binding; sequences stand for … in GC…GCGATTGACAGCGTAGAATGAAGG
Think of 1 as a floor: if PBM binding z-score stands on it or above, it is 1.0; beneath it, 0.0.

INSERT INTO assay_data (query_sequence, target, class_label) VALUES
  ('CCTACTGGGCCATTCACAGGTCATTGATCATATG', 'RXRa DBDmut IVT, anti-RXR (DBD mutation: RXRa K156A/R161A, NR concentration 90 nM)', 0.0),
  ('ATCGAAAGGTCGACGATGTGAGTATACACCGTTT', 'RXRa DBDmut IVT, anti-RXR (DBD mutation: RXRa K156A/R161A, NR concentration 90 nM)', 1.0),
  ('CTGGAAAGGTCGGTTGAGGTGAGTATACGGATAA', 'RXRa DBDmut IVT, anti-RXR (DBD mutation: RXRa K156A/R161A, NR concentration 90 nM)', 1.0),
  ('TGAATCAGGTTAAAGATCAGGGAACGTGGCGTCG', 'RXRa DBDmut IVT, anti-RXR (DBD mutation: RXRa K156A/R161A, NR concentration 90 nM)', 0.0),
  ('AGAATGAGGTTATTACGATCAGGGAATTGCGGTC', 'RXRa DBDmut IVT, anti-RXR (DBD mutation: RXRa K156A/R161A, NR concentration 90 nM)', 1.0),
  ('ATATGTAGGGTAGCTGGGGTCATTCAGACTAGGC', 'RXRa DBDmut IVT, anti-RXR (DBD mutation: RXRa K156A/R161A, NR concentration 90 nM)', 1.0);

Measured values drawn from the supplement of paper PMC6555819 for this set.
